Target: KRas G12R (Homo sapiens, UniProt P01116, G12R);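 note: TR-FRET displacement assay of compound binding to KRas, read after one hour at room temperature, potency from a four-parameter fit of percent-of-control values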
Sequence (P01116 1-169 isoform P01116-2 G12R): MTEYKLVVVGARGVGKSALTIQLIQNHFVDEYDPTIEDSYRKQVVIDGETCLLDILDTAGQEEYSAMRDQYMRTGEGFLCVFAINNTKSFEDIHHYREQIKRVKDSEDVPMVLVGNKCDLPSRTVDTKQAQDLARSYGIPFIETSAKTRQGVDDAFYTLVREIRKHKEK
Experiment: biochemical
pIC50: −log10 of the molar value.
# if value of pIC50 reaches 6, tag 1; if it stays below, tag 0

Completed entries (count: 4):
> print(dat)
                                   molecule                         target.under.test  classification
1  CCc1c(F)ccc2cc(O)cc(-c3ncc4c(N5CCCCC(S(C)(=O)=O)C5)nc(OC[C@@]56CCCN5C[C@H](F)C6)nc4c3F)c12 (stereo partly shown)  KRas G12R (Homo sapiens, UniProt P01116, G12R)               1
2  CCc1c(F)ccc2cc(O)cc(-c3ncc4c(N5CCOCC(OC)C5)nc(OC[C@@]56CCCN5C[C@H](F)C6)nc4c3F)c12 (stereo partly shown)  KRas G12R (Homo sapiens, UniProt P01116, G12R)               1
3  C#Cc1c(F)ccc2cc(O)cc(-c3ncc4c(N5CC6C(=O)NC(=O)C6C5)nc(OC[C@@]56CCCN5C[C@H](F)C6)nc4c3F)c12 (stereo partly shown)  KRas G12R (Homo sapiens, UniProt P01116, G12R)               1
4  CCc1cccc2cccc(-c3ncc4c(N5CCCC(C)(O)C5)nc(OCC56CCCN5CCC6)nc4c3F)c12 (stereo not shown)  KRas G12R (Homo sapiens, UniProt P01116, G12R)               1

Q: Entry CCc1c(F)ccc2cc(O)cc(-c3ncc4c(N5CCCC6(CNS(=O)(=O)N6)C5)nc(OCC5(CN(C)C)CC5)nc4c3F)c12 (stereo not shown) : is its pIC50 no less than 6?
A: 1

Q: Identify whether the reported pIC50 of the following molecule is 6 or greater: `CC1(CNc2nc(OCC34CCCN3CCC4)nc3c(F)c(-c4cccc5cccc(F)c45)ncc23)CCC1`
A: 0
